src = patent US20250120989A1

Listing: CC50 at 5 days of selected molecules
# test description: in vitro
# experimental context: human, uninfected MT-4 cells

{"columns": ["structure as smiles", "CC50 at 5 days (µM)"],
 "data": [
  ["CC[C@@H](OP(=O)(O)O)[C@H](C)OC(=O)OCOc1c2n(cc(C(=O)NCc3ccc(F)cc3F)c1=O)[C@@H]1CN(C2=O)[C@@H](C)CC[C@]12CC(OC)=NO2", 34.3],
  ["COC1=NO[C@@]2(CC[C@H](C)N3C[C@H]2n2cc(C(=O)NCc4ccc(F)cc4F)c(=O)c(OCOC(=O)O[C@@H](C)[C@H](C)OP(=O)(O)O)c2C3=O)C1", 29],
  ["CC1=NO[C@@]2(CC[C@H](C)N3C[C@H]2n2cc(C(=O)NCc4ccc(F)cc4F)c(=O)c(OCOC(=O)OC[C@H](C)COP(=O)(O)O)c2C3=O)C1", 17.3]
]}

###

# test description: in vitro
# experimental context: human, uninfected MT-4 cells
Labelling: CC50 at 5 days reported below 20 µM becomes T; at or above becomes F.

{"columns": ["structure as smiles", "answer label"],
 "data": [
  ["COC1=NO[C@@]2(CC[C@H](C)N3C[C@H]2n2cc(C(=O)NCc4ccc(F)cc4F)c(=O)c(OCOC(=O)O[C@H](C)[C@@H](C)OP(=O)(O)O)c2C3=O)C1", "F"],
  ["CC1=NO[C@@]2(CC[C@H](C)N3C[C@H]2n2cc(C(=O)NCc4ccc(F)cc4F)c(=O)c(OCOC(=O)N(C)CC(=O)O)c2C3=O)C1", "F"],
  ["CC1=NO[C@@]2(CC[C@H](C)N3C[C@H]2n2cc(C(=O)NCc4ccc(F)cc4F)c(=O)c(OCOC(=O)C4(CCN(CC(=O)O)C(=O)OCOP(=O)(O)O)CC4)c2C3=O)C1", "T"],
  ["CC1=NO[C@@]2(CC[C@H](C)N3C[C@H]2n2cc(C(=O)NCc4ccc(F)cc4F)c(=O)c(OCOC(=O)OCC[N+](C)(C)C)c2C3=O)C1", "T"],
  ["CC[C@@H](OP(=O)(O)O)[C@H](C)OC(=O)OCOc1c2n(cc(C(=O)NCc3ccc(F)cc3F)c1=O)[C@@H]1CN(C2=O)[C@@H](C)CC[C@]12CC(C)=NO2", "F"]
]}

###

Listing: CC50 at 5 days of selected molecules
# test description: in vitro
# experimental context: human, uninfected MT-4 cells

{"columns": ["molecule", "measurement units", "CC50 at 5 days"],
 "data": [
  ["CC1=NO[C@@]2(CC[C@H](C)N3C[C@H]2n2cc(C(=O)NCc4ccc(F)cc4F)c(=O)c(OCOC(=O)OC(C)(C)COP(=O)(O)O)c2C3=O)C1 [Compound 62]", "µM", 28.1],
  ["CC1=NO[C@@]2(CC[C@H](C)N3C[C@H]2n2cc(C(=O)NCc4ccc(F)cc4F)c(=O)c(OCOC(=O)OCC(C)(C)CN(CC(=O)O)C(=O)OCOP(=O)(O)O)c2C3=O)C1 [Compound 37]", "µM", 11.1],
  ["CC1=NO[C@@]2(CC[C@H](C)N3C[C@H]2n2cc(C(=O)NCc4ccc(F)cc4F)c(=O)c(OCOC(=O)OCC4(COP(=O)(O)O)CC4)c2C3=O)C1 [Compound 33]", "µM", 12.3]
]}
